Target: T1, human aquaporin 3 (AQP3) on cells (human, UniProt Q92482 1-292)
T1 construct: whole, on cells; Water channel membrane protein; also called human AQP3; AQP3 on HaCaT cells
T1 sequence (looked up): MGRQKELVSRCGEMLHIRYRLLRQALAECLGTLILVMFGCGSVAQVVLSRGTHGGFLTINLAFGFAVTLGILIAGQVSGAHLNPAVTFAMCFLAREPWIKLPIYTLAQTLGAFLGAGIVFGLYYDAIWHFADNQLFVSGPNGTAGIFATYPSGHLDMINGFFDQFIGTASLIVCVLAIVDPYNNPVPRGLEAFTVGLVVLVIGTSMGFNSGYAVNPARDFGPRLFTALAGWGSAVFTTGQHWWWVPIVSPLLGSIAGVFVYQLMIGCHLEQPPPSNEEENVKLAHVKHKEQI
Test: fluorescence binding assay on HaCaT cells, 10 µg/mL (FIG. 5C)

- BINDER: "Antibody H (antibody, mouse IgG2a, kappa, V domains shown, also called anti AQP3 antibody H) VH: EVKLVESGGDLVKPGGSLKLSCAASGFTFSSYGMSWVRQTPDKRLEWVATISRRSIYTYYPDSVQGRFTISRDNAKNTLYLQMSSLKSEDTAMYYCARLSLYDYDGARYTMDYWGQGTSVTVSS VL: DIKMTQSPKFMSTSVGDRVSITCKASQDVGTAVAWYQQKPGQSPKLLIYWASTRHTGVPDRFTGSGSGTDFTLTISNVQSEDLADYFCQQYSSYHTFGAGTKLEIKR"
  binding result: "binds"
- BINDER: "Antibody J (antibody, mouse IgG2a, kappa, V domains shown, also called anti AQP3 antibody J) VH: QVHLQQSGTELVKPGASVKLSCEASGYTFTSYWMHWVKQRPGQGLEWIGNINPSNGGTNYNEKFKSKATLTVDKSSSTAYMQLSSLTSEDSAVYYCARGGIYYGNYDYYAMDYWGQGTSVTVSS VL: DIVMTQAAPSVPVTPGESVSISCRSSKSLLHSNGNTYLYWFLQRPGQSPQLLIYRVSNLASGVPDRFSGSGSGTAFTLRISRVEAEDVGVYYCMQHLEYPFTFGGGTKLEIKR"
  binding result: "binds"
- BINDER: "Antibody C (antibody, mouse IgG2a, kappa, V domains shown, also called anti AQP3 antibody C) VH: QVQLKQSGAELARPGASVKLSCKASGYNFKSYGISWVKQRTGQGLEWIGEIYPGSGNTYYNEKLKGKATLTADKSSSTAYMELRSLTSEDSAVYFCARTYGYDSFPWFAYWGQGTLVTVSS VL: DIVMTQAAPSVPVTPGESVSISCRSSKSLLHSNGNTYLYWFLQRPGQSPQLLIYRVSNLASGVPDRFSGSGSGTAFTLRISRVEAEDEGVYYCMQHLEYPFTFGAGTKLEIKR"
  binding result: "binds"
